The entries below come with measured Tm dec. (° C.) values attached.
# measurement description: differential scanning calorimetry (DSC), thermal stability
# Type: physicochemical
# run parameters: thermal decomposition
Unit °C implied. Number only.

- compound: "ON=C1CCC2(CC1)OOC1(O2)C2CC3CC(C2)CC1C3 (stereo not drawn)"
  meas value: 153.6
- compound: "OCCC1CCC2(CC1)OOC1(O2)C2CC3CC(C2)CC1C3 (stereo not drawn)"
  meas value: 154.7
- compound: "COc1ccc(S(=O)(=O)N2CCC3(CC2)OOC2(O3)C3CC4CC(C3)CC2C4)cc1 (stereo not drawn)"
  meas value: 152.2
- compound: "O=C(O)CCC(=O)N1CCC2(CC1)OOC1(O2)C2CC3CC(C2)CC1C3 (stereo not drawn)"
  meas value: 147.0
- compound: "CC(=O)OC1(c2ccc(F)cc2)CCC2(CC1)OOC1(O2)C2CC3CC(C2)CC1C3 (stereo not drawn)"
  meas value: 164.1

Entry Cc1ccc(S(=O)(=O)N2CCC3(CC2)OOC2(O3)C3CC4CC(C3)CC2C4)cc1 (stereo not drawn) needs its Tm dec. (° C.) filled in; supply it.
152.3

Entry CCOC(=O)C1CCC2(CC1)OOC1(O2)C2CC3CC(C2)CC1C3 (stereo not drawn) needs its Tm dec. (° C.) filled in; supply it.
162.8

Entry O=C(O)CC1CCC2(CC1)OOC1(O2)C2CC3CC(C2)CC1C3 (stereo not drawn) needs its Tm dec. (° C.) filled in; supply it.
157.5

Entry O=C(CO)N1CCC2(CC1)OOC1(O2)C2CC3CC(C2)CC1C3 (stereo not drawn) needs its Tm dec. (° C.) filled in; supply it.
163.6
